Target of assay: T1, human IL-17A (human, UniProt Q16552 24-155)
T1 construct: Recombinant; biotinylated in the ELISA; also called hIL-17; hIL17A
T1 sequence (Q16552 24-155): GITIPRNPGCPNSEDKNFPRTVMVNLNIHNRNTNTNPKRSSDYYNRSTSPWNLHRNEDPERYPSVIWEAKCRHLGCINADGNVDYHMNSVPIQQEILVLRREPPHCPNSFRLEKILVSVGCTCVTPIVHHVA
Method summary: SPR (Biacore 3000), antibody captured by anti-Fc, antigen in solution;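 note: purified recombinant IL-17 antigens flowed over captured antibodies in HBS-EP buffer, global Langmuir one-to-one fit of association and dissociation phases, KD derived from koff over kon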
Reported metric: koff

[
  {
    "Binder": "IL17-h5C5.14 (antibody, V domains shown, IgG; constant regions not specified; also called h5C5.14 (VH.1-Vk.3a)) VH: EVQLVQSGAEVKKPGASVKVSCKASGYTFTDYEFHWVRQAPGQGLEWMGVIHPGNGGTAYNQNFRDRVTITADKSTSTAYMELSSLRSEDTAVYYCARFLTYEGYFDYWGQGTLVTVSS VL: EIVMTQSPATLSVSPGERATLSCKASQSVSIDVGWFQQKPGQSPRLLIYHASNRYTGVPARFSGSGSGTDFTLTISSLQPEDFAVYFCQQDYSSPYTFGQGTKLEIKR",
    "Reported metric": "koff",
    "Result": "0.000472 s⁻¹"
  },
  {
    "Binder": "IL17-h10F7.11 (antibody, V domains shown, IgG; constant regions not specified; also called h10F7.11 (VH.1a-Vk.2a)) VH: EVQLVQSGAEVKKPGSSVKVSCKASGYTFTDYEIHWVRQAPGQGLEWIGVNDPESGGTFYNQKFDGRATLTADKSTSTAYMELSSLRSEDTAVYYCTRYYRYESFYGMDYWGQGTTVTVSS VL: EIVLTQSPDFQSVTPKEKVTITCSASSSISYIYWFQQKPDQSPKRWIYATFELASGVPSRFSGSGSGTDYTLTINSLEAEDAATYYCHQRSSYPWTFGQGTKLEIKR",
    "Reported metric": "koff",
    "Result": "0.000142 s⁻¹"
  },
  {
    "Binder": "IL17-h10F7.6 (antibody, V domains shown, IgG; constant regions not specified; also called h10F7.6 (VH.1a-Vk.1a)) VH: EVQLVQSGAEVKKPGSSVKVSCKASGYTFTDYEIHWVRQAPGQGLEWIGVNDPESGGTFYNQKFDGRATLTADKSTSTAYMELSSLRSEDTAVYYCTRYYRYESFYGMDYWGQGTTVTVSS VL: DIQLTQSPSSLSASVGDRVTITCSASSSISYIYWFQQKPGKSPKRWIYATFELASGVPSRFSGSGSGTDYTLTISSLQPEDFATYYCHQRSSYPWTFGQGTKLEIKR",
    "Reported metric": "koff",
    "Result": "0.000185 s⁻¹"
  }
]
